Cited source for all entries: PubChem BioAssay

Answer each item with its documented fluorescence slope.
# Target under test: Muscarinic acetylcholine receptor M4 (Homo sapiens) (UniProt P08173)
# Sequence (P08173 whole entry, looked up): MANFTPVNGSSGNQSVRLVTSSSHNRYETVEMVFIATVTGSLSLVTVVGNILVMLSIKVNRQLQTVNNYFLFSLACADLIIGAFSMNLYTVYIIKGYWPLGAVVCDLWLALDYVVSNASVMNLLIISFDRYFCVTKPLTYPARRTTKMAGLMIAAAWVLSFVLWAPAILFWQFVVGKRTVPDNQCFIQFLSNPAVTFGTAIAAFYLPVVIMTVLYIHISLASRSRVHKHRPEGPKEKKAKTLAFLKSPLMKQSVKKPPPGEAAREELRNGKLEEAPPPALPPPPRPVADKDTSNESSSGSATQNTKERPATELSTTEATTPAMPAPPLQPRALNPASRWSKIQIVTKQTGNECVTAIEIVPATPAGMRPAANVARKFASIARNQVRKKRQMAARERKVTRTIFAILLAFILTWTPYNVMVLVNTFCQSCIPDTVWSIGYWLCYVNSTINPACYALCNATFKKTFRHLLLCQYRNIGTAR
# Method: compounds altering M4/GIRK thallium flux, either direction, primary screen, M4 allosteric agonist project, cell-based, HEK293 M4/GIRK, BTC-AM (AID 625);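 also: thallium influx through GIRK channels coupled to M4 in HEK293 cells with BTC-AM dye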
# Protocol conditions: at 10 µM, actives lie on both sides
Give bare numbers.

Past entries and their recorded results:
INSERT INTO results (compound, recorded_value) VALUES
  ('C=CCn1c(C2CC(=O)N(c3ccc(C)cc3)C2)nc2ccccc21 (stereo not given)', 0.00532),
  ('CC(C)Cc1nc(N2CCOCC2)c(C#N)c2c1COC(C)(C)C2', 0.00418),
  ('N#C/C(=C\c1c(N2CCC(C(N)=O)CC2)nc2ccccn2c1=O)S(=O)(=O)c1ccccc1', 0.00437),
  ('O=C(C(c1ccccc1)N1CCOCC1)N1CCOCC1 (stereo not given)', 0.00553),
  ('N#CC(C#N)C(c1ccsc1)c1c(-c2ccccc2)[nH][nH]c1=O (stereo not given)', 0.00622);

Provide fluorescence slope for all items below, preserving their order.
1. Cc1cc(=O)oc2c(CN3CCC(C)CC3)c(O)c(Cl)cc12
2. COc1ccc(/C(O)=C2/C(=O)C(=O)N(CCCN(C)C)C2c2ccccc2)cc1Cl (stereo not given)
3. CCOC(=O)c1c(C)n(C)c2ccc(O)c(CN3CCCCC3)c12
4. O=C(Oc1oc(-c2ccco2)nc1C=Nc1ccccc1)c1ccco1
5. O=C(C1=C(O)C(=O)N(CCCN2CCOCC2)C1c1ccccn1)c1cc2ccccc2o1 (stereo not given)

result:
0.00736
0.00499
0.00334
0.0053
0.0054

====

# Method: DUSP6 inhibitors restoring Erk phosphorylation by chemical complementation, primary imaging in DUSP6-transfected HeLa (AID 609)
# Protocol conditions: HeLa MKP-3 transfected, phospho-Erk imaging KS statistic; measured here: nuclear c-Myc green intensity z-score; at 10 µM; cells stimulated with TPA for 15 min
Param threshold (-0.08) applies to z-score; output criterion met when value >= threshold, criterion not met when value < threshold.

# example entries with known answers
INSERT INTO results (molecule, answer_label) VALUES
  ('COc1cc(N2CCCC2)c(OC)cc1/C=c1/sc2nc3ccccc3n2c1=O', 'criterion met'),
  ('CCN(CC)c1nc(C)c2c(c1C#N)CC(C)(C)OC2', 'criterion met'),
  ('Cn1ncc(N=Cc2c(O)ccc3ccccc23)c1C(=O)N1CCOCC1', 'criterion met');

query: Tell me whether z-score is at least -0.08 here: "Cc1ccc(-n2ncc3c(N4CCCC4)ncnc32)c(C)c1"
result: criterion not met

query: Tell me whether z-score is at least -0.08 here: "CCC(=O)Nc1nc2ccccc2n1CCN(C)C"
result: criterion met

query: Tell me whether z-score is at least -0.08 here: "Cc1cc(SCCC(=O)O)nc2ccccc12"
result: criterion met

query: Tell me whether z-score is at least -0.08 here: "COc1ccc(Nc2nnc(C)c3ccccc23)cc1C(N)=O"
result: criterion met

query: Tell me whether z-score is at least -0.08 here: "Cc1sc(-n2c(C)ccc2C)c(C#N)c1C"
result: criterion not met

query: Tell me whether z-score is at least -0.08 here: "CCCn1c(SCC#N)nc2c(c1=O)C1(CCCC1)Cc1ccccc1-2"
result: criterion met

query: Tell me whether z-score is at least -0.08 here: "Cc1nc2c(c(N3CCOCC3)n1)OCC(=O)N2"
result: criterion met

query: Tell me whether z-score is at least -0.08 here: CCOc1cccc(NC(=O)C2CC(=O)NC(=Nc3ccccc3)S2)c1 (configuration not stated)
result: criterion not met

query: Tell me whether z-score is at least -0.08 here: Cc1ccccc1N1C(=O)CC(Sc2nnc(-c3ccccc3)o2)C1=O (configuration not stated)
result: criterion not met
